- SYSTEM NAME: T1, human PRLR ECD (Homo sapiens, UniProt P16471)
- T1 construct: His6 (C); made in house; host or cells: Tn5 insect cells, baculovirus
- T1 sequence (P16471 25-234): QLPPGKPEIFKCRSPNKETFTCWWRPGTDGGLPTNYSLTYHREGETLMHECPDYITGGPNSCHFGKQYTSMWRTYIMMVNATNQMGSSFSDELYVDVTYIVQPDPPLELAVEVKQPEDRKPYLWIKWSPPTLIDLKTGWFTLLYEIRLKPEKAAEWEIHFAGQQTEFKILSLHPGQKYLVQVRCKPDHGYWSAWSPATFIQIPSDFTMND
- ASSAY PROCEDURE: Biacore kinetic titration, antibody captured on Protein A/G
- Type: binding
- RUN PARAMETERS: Table 9, Human PRLR ECD; unit not given
OUTCOME MEASURE: kd
Just the number, please, no unit attached.

Look up kd: he.06.642-1: HUMAN-ENGINEERED antibody from XHA.06.642; variable regions SEQ ID NO: 88 and SEQ ID NO: 89 by order of listing (antibody, V domains shown) VH: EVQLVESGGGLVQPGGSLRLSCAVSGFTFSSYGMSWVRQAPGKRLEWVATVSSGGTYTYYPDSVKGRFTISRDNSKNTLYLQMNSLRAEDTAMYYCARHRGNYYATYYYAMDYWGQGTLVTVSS VL: DIVLTQSPDSLAVSLGERATINCKASKSVSTSGYTYMHWYQQKPGQPPKLLIYLASNRESGVPDRFSGSGSGTDFTLTISPVQAEDVATYYCQHSGELPPSFGQGTKLEIK
3.5E−04
